System: Eubacterium rectale
Test Summary: growth AUC relative to DMSO control (median of replicates) (fraction); higher = more growth (less inhibition), active = hit call of the paper;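 active = AUC reduced over 20% with Padj below 0.05 in at least 2 of 3 replicates; inactive = otherwise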
Condition Notes: 20 µM; 24 h
Respond with a class label; see active, inactive

Example entries begin here.
Incoming: Tell me the assay call for "C=CCc1ccc(OC)c(OC)c1" please.
Outgoing: inactive

Incoming: Thanks! And "COC(=O)c1ccc(C(=O)OC)cc1" ?
Outgoing: inactive

Incoming: Thanks! And CCOC(=O)C(C)Oc1ccc(Oc2nc3ccc(Cl)cc3o2)cc1 (racemic) ?
Outgoing: inactive

---
Incoming: Tell me the assay call for "CCOC(=O)/C(Cl)=C/c1cc(N2C(=O)C3=C(CCCC3)C2=O)ccc1Cl" please.
Outgoing: inactive

Incoming: Thanks! And COC(=O)C(C)Oc1ccc(Oc2ccc(C(F)(F)F)cn2)cc1 (stereo unspecified) ?
Outgoing: inactive

Incoming: Thanks! And "Cc1ccc(Cl)cc1" ?
Outgoing: inactive

Incoming: Thanks! And COC1CCC2(CC1)NC(=O)C(c1cc(C)ccc1C)=C2OC1OC(CO)C(O)C(O)C1O (stereo unspecified) ?
Outgoing: inactive

Incoming: Thanks! And CCC(C)Nc1nc(N)nc(Cl)n1 (stereo unspecified) ?
Outgoing: inactive

###

Test system: Bacteroides clarus
Test Summary: growth AUC relative to DMSO control (median of replicates) (fraction); higher = more growth (less inhibition), active = hit call of the paper
Condition Notes: 20 µM; 24 h
Metric: growth AUC

Worked set:
Incoming: Item: "CCc1cccc(C)c1NC(=O)CS(=O)(=O)[O-].[Na+]" Test system: Bacteroides clarus Read-out: growth AUC Value: ?
Outgoing: 0.962 (inactive)

Incoming: Thanks! And "NC(=O)c1c(Cl)cccc1Cl" ?
Outgoing: 1 (inactive)

List reported growth AUC for each of these compounds:
1. CCCC(C)(C)C(=O)Nc1ccc(Cl)cc1
2. Cc1nn(C)c(OCC(=O)c2ccccc2)c1C(=O)c1ccc(Cl)cc1Cl
3. CC(Oc1ccc(Cl)cc1Cl)C(=O)NC(C)(C#N)C(C)C (centres undefined)
4. CCOCCOC(=O)C(C)Oc1ccc(Oc2ncc(C(F)(F)F)cc2Cl)cc1 (centres undefined)
5. CC(C)(C)C(O)/C(=C\c1ccc(Cl)cc1)n1cncn1 (centres undefined)
6. Oc1c(Cl)cc(Cl)c(Cl)c1Cc1c(O)c(Cl)cc(Cl)c1Cl

Outgoing:
1.01 (inactive)
0.978 (inactive)
1 (inactive)
0.968 (inactive)
0.987 (inactive)
0.0212 (active)

###

Tested on: Bacteroides uniformis
Test Summary: growth AUC relative to DMSO control (median of replicates) (fraction); higher = more growth (less inhibition), active = hit call of the paper
Condition Notes: 20 µM; 24 h
Metric: growth AUC
Numbers only.

Worked set:
Incoming: Query (compound): "COC(=O)c1c(Cl)c(Cl)c(C(=O)OC)c(Cl)c1Cl" ; field requested: growth AUC
Outgoing: 0.994

Incoming: Thanks! And CC1CN(C2CCCCCCCCCCC2)CC(C)O1 (mixture of isomers) ?
Outgoing: 1.08

Incoming: Thanks! And "CN(C)C(=O)c1cccnc1S(N)(=O)=O" ?
Outgoing: 1.04

Incoming: Thanks! And "CCSC(=O)N(CC(C)C)CC(C)C" ?
Outgoing: 0.994

List reported growth AUC for each of these compounds:
1. COC(=O)c1c(Cl)ccc(Cl)c1OC
2. CC(C)C(O)(c1ccc(OC(F)(F)F)cc1)c1cncnc1 (stereo not given)
3. COC(=O)CSc1cc(N=c2sc(=O)n3n2CCCC3)c(F)cc1Cl
4. CN(C)C(=O)Nc1ccc(Cl)c(Cl)c1
5. O=C(O)Cc1c(Cl)ccc(Cl)c1Cl
6. O=C(Nc1ccc(O)cc1-c1ccc(Cl)cc1)c1cccnc1Cl
7. CCOC(=O)[C@@H](C)Oc1ccc(Oc2nc3ccc(Cl)cc3o2)cc1
8. CCOC(=O)Cn1c(=O)sc2cccc(Cl)c21

Outgoing:
1. 1
2. 0.972
3. 0.988
4. 0.954
5. 0.993
6. 1
7. 0.929
8. 0.957

List reported growth AUC for each of these compounds:
1. COc1nc(C)nc(NC(=O)NS(=O)(=O)c2ccccc2OCCCl)n1
2. CCCCC(CC)COC(=O)COc1ccc(Cl)cc1C (stereo not given)
3. CC(C)N(C)S(=O)(=O)NC(=O)c1cc(-n2c(=O)cc(C(F)(F)F)[nH]c2=O)c(F)cc1Cl
4. Cc1cccc(C)c1N(CCSCC(O)C(=O)[O-])C(=O)CO.[Na+] (stereo not given)
5. CCCCCCCC/C=C\CCCCCCCCCCCC(=O)O
6. COc1nc(NC(=O)NS(=O)(=O)c2ccccc2C(F)(F)F)nc(C(F)(F)F)n1
7. CNC(=O)/C(=N/OC)c1ccccc1COc1cc(C(=O)O)ccc1C

Outgoing:
1.01
0.943
1.03
1.01
1.01
1
1.01

List reported growth AUC for each of these compounds:
1. CCc1nc2ncnn2c(N)c1CCCC(=O)O.Cl
2. CCNc1nc(NCC)nc(OC)n1
3. Cc1nc(C(F)(F)F)c(C(=O)Nc2c(Br)cc(OC(F)(F)F)cc2Br)s1
4. COc1cc(OC)nc(Sc2cccc3c2C(=O)OC3C)n1 (stereo not given)
5. CSc1nnc(C(C)(C)C)c(=O)n1/N=C/C(C)C
6. c1ccc2cc3c(ccc4ccccc43)cc2c1
7. CC(C)C1C2CCC1c1c(NC(=O)c3cn(C)nc3C(F)F)cccc12 (stereo not given)
8. CC(C)c1cc(Oc2ccccc2)cc(C(C)C)c1NC(=S)NC(C)(C)C

Outgoing:
1.02
0.992
0.986
0.97
0.988
1.01
0.912
0.998

List reported growth AUC for each of these compounds:
1. CCSc1nc(NC(C)C)nc(NC(C)C)n1
2. CCOC(=O)[C@@H](C)Oc1ccc(Oc2cnc3cc(Cl)ccc3n2)cc1

Outgoing:
1: 0.948; 2: 0.947

List reported growth AUC for each of these compounds:
1. O=C(O)CNC(=O)c1cnccc1C(F)(F)F
2. CC(Oc1ccc(Cl)cc1Cl)C(=O)NC(C)(C#N)C(C)C (stereo not given)
3. c1ccc(CNc2ncnc3nc[nH]c23)cc1
4. CCc1cccc(CC)c1N(COC)C(=O)CS(=O)(=O)[O-].[Na+]
5. c1cc2ccc3ccc4ccc5cccc6c(c1)c2c3c4c56
6. COC(=O)C(C)Oc1ccc(Oc2ccc(C(F)(F)F)cn2)cc1 (stereo not given)

Outgoing:
1: 1.02; 2: 0.92; 3: 1.06; 4: 0.996; 5: 1; 6: 0.968

List reported growth AUC for each of these compounds:
1. CCOC(=O)C(C)N(C(=O)c1ccccc1)c1ccc(Cl)c(Cl)c1 (stereo not given)
2. Clc1ccc(C(c2ccccc2Cl)C(Cl)Cl)cc1 (stereo not given)

Outgoing:
[0.89, 0.943]

List reported growth AUC for each of these compounds:
1. FC(F)(F)/N=C1\SC(=Nc2ccccc2)N(c2ccccc2)\C1=N\C(F)(F)F
2. CCCN(CCC)C(=O)SCC
3. c1ccc2c(c1)Cc1ccccc1-2
4. O=C(NC(=O)c1c(F)cccc1F)Nc1cc(C(F)(F)F)cc(C(F)(F)F)c1Cl

Outgoing:
1: 0.924; 2: 0.959; 3: 1; 4: 0.96

List reported growth AUC for each of these compounds:
1. COC(=O)[C@@H](C)Oc1ccc(Oc2ncc(C(F)(F)F)cc2Cl)cc1
2. CCOC(=O)NCCOc1ccc(Oc2ccccc2)cc1
3. CCOCCOC(=O)C(C)Oc1ccc(Oc2ncc(C(F)(F)F)cc2Cl)cc1 (stereo not given)
4. O=S(=O)(Oc1ccc(Cl)cc1Cl)c1ccccc1

Outgoing:
[0.907, 0.958, 0.903, 0.996]

###

Tested on: Roseburia intestinalis
Test Summary: growth AUC relative to DMSO control (median of replicates) (fraction); higher = more growth (less inhibition), active = hit call of the paper;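 active = AUC reduced over 20% with Padj below 0.05 in at least 2 of 3 replicates; inactive = otherwise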
Condition Notes: 20 µM; 24 h
Respond with a class label; see active, inactive

Incoming: Tell me the assay call for "COC(=O)CSc1cc(N=c2sc(=O)n3n2CCCC3)c(F)cc1Cl" please.
Outgoing: inactive

Incoming: Thanks! And "CCOc1nc(F)cc2nc(S(=O)(=O)Nc3c(Cl)cccc3C(=O)OC)nn12" ?
Outgoing: inactive

Incoming: Thanks! And C=CCO/N=C(\CCC)C1=C([O-])CC(C)(C)C(C(=O)OC)C1=O.[Na+] (stereo unspecified) ?
Outgoing: inactive

---
Incoming: Tell me the assay call for "O=C(O)CNC(=O)c1cnccc1C(F)(F)F" please.
Outgoing: inactive

Incoming: Thanks! And "CCOCOc1ccc(C(=O)Nc2cccc(Cl)c2Cl)cc1" ?
Outgoing: inactive

Incoming: Thanks! And "CCCN(CCOc1c(Cl)cc(Cl)cc1Cl)C(N)=O" ?
Outgoing: inactive

Incoming: Thanks! And "O.O=C(Nc1ccc(Cl)c(Cl)c1)Nc1cc(Cl)ccc1Oc1ccc(Cl)cc1S(=O)(=O)[O-].[Na+]" ?
Outgoing: active

Incoming: Thanks! And "CCCCOC(=O)[C@@H](C)Oc1ccc(Oc2ccc(C(F)(F)F)cn2)cc1" ?
Outgoing: inactive

Incoming: Thanks! And COC(=O)C(C)Oc1ccc(Oc2ncc(C(F)(F)F)cc2Cl)cc1 (stereo unspecified) ?
Outgoing: inactive

Incoming: Thanks! And "CCCCCCCCSCCO" ?
Outgoing: inactive

Incoming: Thanks! And "CC(C)c1nn(C(=O)NC(C)(C)C)c(=O)n1N" ?
Outgoing: inactive
